- target.desc: UniProt Q9Y243
- Sequence (Q9Y243 whole entry): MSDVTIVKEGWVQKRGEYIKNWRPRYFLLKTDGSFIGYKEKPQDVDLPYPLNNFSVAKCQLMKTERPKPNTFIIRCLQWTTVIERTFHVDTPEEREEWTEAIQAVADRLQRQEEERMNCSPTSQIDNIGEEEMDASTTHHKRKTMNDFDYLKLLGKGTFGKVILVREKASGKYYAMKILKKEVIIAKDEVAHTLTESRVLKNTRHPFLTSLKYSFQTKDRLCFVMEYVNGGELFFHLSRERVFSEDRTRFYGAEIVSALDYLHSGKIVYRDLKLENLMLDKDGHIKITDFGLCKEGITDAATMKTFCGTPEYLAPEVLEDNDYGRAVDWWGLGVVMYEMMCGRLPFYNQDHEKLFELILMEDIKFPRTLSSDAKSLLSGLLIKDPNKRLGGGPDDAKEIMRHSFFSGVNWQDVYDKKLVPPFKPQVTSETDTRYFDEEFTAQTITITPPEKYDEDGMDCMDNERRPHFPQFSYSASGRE
- procedure.details: AKT Kinase Assay (IMAP fluorescent polarisation) vs AKT3
- measurement.setup: activated AKT3, FAM Crosstide substrate
pIC50: −log10 of the molar value. Where a name gives a salt, the structure may show the parent alone.
measurement.type: pIC50

Here is how some molecules turned out for pIC50.
* COc1ncnc2oc(-c3ccc(C4(N)CCC4)cc3)c(-c3ccccc3)c12 | < 5.00
* CCn1c(NCCO)nc2oc(-c3ccc(C4(N)CCC4)cc3)c(-c3ccccc3)c2c1=O | 5.00 to 6.00

Query CNc1nc(NCCO)nc2oc(-c3ccc(C4(N)CCC4)cc3)c(-c3ccccc3)c12 [Example 79, HCl] yields pIC50 of < 5.00

Query C[C@@H](CO)Nc1nc2oc(-c3ccc(C4(N)CCC4)cc3)c(-c3ccccc3)c2c(=O)n1C yields pIC50 of < 5.00

Query C[C@H](O)CNc1nc2oc(-c3ccc(C4(N)CCC4)cc3)c(-c3ccccc3)c2c(=O)n1C yields pIC50 of 5.00 to 6.00

Query NC1(c2ccc(-c3oc4ncc(-c5ccn[nH]5)nc4c3-c3ccccc3)cc2)CCC1 yields pIC50 of < 5.00

Query Cn1c(N2CC[C@@H](O)C2)nc2oc(-c3ccc(C4(N)CCC4)cc3)c(-c3ccccc3)c2c1=O yields pIC50 of 5.00 to 6.00

Query COCCn1c(SC)nc2oc(-c3ccc(C4(N)CCC4)cc3)c(-c3ccccc3)c2c1=O [Example 67, HCl] yields pIC50 of 6.00 to 7.00

Query CC(=O)Nc1cccc(-c2cnc3oc(-c4ccc(C5(N)CCC5)cc4)c(-c4ccccc4)c3n2)c1 [Example 151, HCl] yields pIC50 of < 5.00

Query C#Cc1cnc2oc(-c3ccc(C4(N)CCC4)cc3)c(-c3ccccc3)c2n1 yields pIC50 of < 5.00

Query Nc1cnc2oc(-c3ccc(C4(N)CCC4)cc3)c(-c3ccccc3)c2c1 yields pIC50 of < 5.00

Query NC1(c2ccc(-c3oc4ncc([N+](=O)[O-])cc4c3-c3ccccc3)cc2)CCC1 yields pIC50 of < 5.00

Query Cn1c(N2CCC(O)CC2)nc2oc(-c3ccc(C4(N)CCC4)cc3)c(-c3ccccc3)c2c1=O [Example 59, hydrochloride] yields pIC50 of 5.00 to 6.00

Query COc1nccc2c(I)c(-c3ccc(C4(N)CCC4)cc3)oc12 yields pIC50 of < 5.00

Query Cn1cc(-c2cn(C)c(=O)c3c(-c4ccccc4)c(-c4ccc(C5(N)CCC5)cc4)oc23)cn1 yields pIC50 of 5.00 to 6.00

Query NC1(c2ccc(-c3oc4nc(NCCO)n(CC5CC5)c(=O)c4c3-c3ccccc3)cc2)CCC1 yields pIC50 of 5.00 to 6.00

###

- target.desc: AKT2 (Homo sapiens)
- Sequence (P31751 whole entry): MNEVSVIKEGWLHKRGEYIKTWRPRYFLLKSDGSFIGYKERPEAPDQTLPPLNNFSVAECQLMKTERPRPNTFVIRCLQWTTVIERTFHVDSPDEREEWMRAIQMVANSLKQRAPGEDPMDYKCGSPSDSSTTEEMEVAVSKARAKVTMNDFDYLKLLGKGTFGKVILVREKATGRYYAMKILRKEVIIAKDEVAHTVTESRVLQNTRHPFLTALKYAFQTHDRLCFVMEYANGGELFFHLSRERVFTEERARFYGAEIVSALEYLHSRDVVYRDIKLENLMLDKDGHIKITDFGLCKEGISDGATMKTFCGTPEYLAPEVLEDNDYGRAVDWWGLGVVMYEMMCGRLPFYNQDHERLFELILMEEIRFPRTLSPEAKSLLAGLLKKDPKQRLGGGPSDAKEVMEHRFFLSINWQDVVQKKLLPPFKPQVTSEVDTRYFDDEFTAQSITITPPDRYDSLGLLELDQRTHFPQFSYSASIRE
- procedure.details: AKT Kinase Assay (IMAP fluorescent polarisation) vs AKT2
- measurement.setup: activated AKT2, FAM Crosstide substrate
pIC50: −log10 of the molar value. Structures can show the parent of a compound that is named as a salt.
pIC50 values, listed per item

Here is how some compounds turned out for pIC50.
• Cn1cc(C(N)=O)c2oc(-c3ccc(C4(N)CCC4)cc3)c(-c3ccccc3)c2c1=O = 6.00 to 7.00
• CSc1nc(C(F)(F)F)c2c(-c3ccccc3)c(-c3ccc(C4(N)CCC4)cc3)oc2n1 [Example 74, hydrochloride] = 5.00 to 6.00
• CNc1nc(SC)nc2oc(-c3ccc(C4(N)CCC4)cc3)c(-c3ccccc3)c12 [Example 68, HCl] = 6.00 to 7.00
• NC1(c2ccc(-c3oc4ncccc4c3-c3ccccc3)cc2)CCC1 = < 5.00
• CSc1nc(I)c2c(-c3ccccc3)c(-c3ccc(C4(N)CCC4)cc3)oc2n1 = 5.00 to 6.00

Query COc1nccc2oc(-c3ccc(C4(N)CCC4)cc3)c(-c3ccccc3)c12 yields pIC50 of 5.00 to 6.00

Query CC(C)n1cnc2oc(-c3ccc(C4(N)CCC4)cc3)c(-c3ccccc3)c2c1=O [Example 107, HCl] yields pIC50 of 6.00 to 7.00

Query COc1ncc(Br)c2c(-c3ccccc3)c(-c3ccc(C4(N)CCC4)cc3)oc12 yields pIC50 of 6.00 to 7.00
